Let's go through some pKi measurements on Sodium-dependent dopamine transporter (Rattus norvegicus, UniProt P23977) together.
Sequence (P23977 whole entry): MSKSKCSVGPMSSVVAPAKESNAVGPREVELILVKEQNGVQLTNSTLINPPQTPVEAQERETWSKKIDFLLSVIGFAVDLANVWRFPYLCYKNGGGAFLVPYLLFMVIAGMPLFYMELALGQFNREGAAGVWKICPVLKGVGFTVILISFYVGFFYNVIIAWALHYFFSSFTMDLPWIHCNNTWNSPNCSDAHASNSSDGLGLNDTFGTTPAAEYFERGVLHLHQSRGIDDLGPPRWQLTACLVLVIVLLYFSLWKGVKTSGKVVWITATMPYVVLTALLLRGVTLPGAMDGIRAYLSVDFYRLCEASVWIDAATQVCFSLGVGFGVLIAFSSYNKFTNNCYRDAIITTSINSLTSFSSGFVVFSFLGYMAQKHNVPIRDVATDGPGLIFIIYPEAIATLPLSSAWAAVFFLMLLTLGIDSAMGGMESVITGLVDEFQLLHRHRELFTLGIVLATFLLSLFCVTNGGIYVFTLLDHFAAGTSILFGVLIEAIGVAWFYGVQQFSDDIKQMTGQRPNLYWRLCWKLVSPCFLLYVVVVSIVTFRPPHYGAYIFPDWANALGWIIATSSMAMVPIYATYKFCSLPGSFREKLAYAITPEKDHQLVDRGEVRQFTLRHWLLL
Reminder that pKi means the negative base-10 logarithm of the concentration expressed in mol/L.

Query block: If you can, please state the reported pKi value of Nc1ccc(CCCCN2[C@@H]3CC[C@H]2C[C@@H](OC(c2ccc(F)cc2)c2ccc(F)cc2)C3)cc1 .
Result block: 7.53

Query block: If you can, please state the reported pKi value of [N-]=[N+]=Nc1ccc(CCCCN2[C@@H]3CC[C@H]2C[C@@H](OC(c2ccc(F)cc2)c2ccc(F)cc2)C3)cc1I .
Result block: 6.80
